Data provenance is patent US20240208992A1.

Could you please report measured Emax for the items listed next?
Biological target: human F508del-CFTR (Homo sapiens, UniProt P13569, DEL508-508)
Sequence (P13569 with tags, fused parts or gaps DEL508-508): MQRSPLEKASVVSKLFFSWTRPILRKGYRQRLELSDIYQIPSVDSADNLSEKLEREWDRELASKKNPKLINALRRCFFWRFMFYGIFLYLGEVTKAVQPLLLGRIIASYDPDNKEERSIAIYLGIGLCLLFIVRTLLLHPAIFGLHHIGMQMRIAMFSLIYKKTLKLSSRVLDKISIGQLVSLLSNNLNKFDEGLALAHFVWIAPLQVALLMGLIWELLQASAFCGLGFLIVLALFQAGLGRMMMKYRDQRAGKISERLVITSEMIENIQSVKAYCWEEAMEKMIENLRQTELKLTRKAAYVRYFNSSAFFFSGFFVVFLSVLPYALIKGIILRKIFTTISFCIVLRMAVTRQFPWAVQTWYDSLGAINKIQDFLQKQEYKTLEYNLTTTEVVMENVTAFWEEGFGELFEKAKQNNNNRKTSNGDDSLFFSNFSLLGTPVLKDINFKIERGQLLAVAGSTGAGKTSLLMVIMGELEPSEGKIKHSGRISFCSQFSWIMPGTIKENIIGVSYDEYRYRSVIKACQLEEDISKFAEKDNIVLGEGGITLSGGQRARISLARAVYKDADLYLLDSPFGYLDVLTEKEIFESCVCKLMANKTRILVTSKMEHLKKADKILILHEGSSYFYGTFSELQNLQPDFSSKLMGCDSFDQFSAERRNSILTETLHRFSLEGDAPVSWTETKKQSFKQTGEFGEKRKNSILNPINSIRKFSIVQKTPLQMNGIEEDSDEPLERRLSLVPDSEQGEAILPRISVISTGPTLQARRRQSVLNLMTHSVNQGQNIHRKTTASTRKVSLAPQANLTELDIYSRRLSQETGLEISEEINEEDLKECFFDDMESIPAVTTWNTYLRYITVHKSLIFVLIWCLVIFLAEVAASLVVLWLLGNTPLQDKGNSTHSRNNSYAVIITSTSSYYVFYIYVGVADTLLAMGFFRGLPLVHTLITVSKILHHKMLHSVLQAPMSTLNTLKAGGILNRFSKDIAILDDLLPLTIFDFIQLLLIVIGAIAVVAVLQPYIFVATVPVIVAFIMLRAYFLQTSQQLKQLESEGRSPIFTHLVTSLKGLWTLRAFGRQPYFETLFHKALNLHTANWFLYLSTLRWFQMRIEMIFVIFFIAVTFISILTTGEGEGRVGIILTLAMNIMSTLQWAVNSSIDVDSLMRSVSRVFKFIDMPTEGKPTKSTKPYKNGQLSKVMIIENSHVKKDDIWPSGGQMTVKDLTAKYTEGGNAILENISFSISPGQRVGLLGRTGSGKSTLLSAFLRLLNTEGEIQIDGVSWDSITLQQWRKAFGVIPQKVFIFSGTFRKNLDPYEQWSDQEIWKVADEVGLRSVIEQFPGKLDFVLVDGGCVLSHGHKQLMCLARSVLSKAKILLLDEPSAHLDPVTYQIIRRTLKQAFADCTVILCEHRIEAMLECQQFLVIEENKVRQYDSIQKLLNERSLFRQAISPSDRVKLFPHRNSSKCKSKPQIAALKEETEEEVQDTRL
Test: F508del-CFTR cell surface expression (corrector activity), DiscoveRx ß-galactosidase complementation chemiluminescence assay in recombinant U2OS cell line
Details: U2OS, in relation to the Emax of the corrector lumacaftor (=100%); U2OS cell line, 16h compound incubation; arithmetic mean values
Answers are plain numbers, in %.

Solved entries (count: 4):
compound	study-target	Emax (%)
CC(C)C[C@H]1C(=O)N(C[C@@H]2CCCCO2)CC(=O)N[C@H](Cc2ccccc2)COc2ccc3ccccc3c2C(=O)N[C@H](C(=O)NCCc2ccc3c(c2)OCO3)CC(=O)N1C (racemic) [Example 163]	human F508del-CFTR (Homo sapiens, UniProt P13569, DEL508-508)	185
COC1CC(CCN2CC(=O)N[C@H](Cc3ccccc3)COc3ccc4ccccc4c3C(=O)N[C@H](C(=O)NCCc3ccc4c(c3)OCO4)CC(=O)N(C)[C@@H](CC(C)C)C2=O)C1 (stereo partly shown) [Example 336]	human F508del-CFTR (Homo sapiens, UniProt P13569, DEL508-508)	212
COc1ccc(C2(CNC(=O)[C@@H]3CC(=O)N(C)[C@@H](CC(C)C)C(=O)N(C)C4(CC4)C(=O)N[C@H](Cc4ccccc4)COc4cnc5ccc(F)cc5c4C(=O)N3)CC2)cc1OC [Example 166]	human F508del-CFTR (Homo sapiens, UniProt P13569, DEL508-508)	111
COc1cccc(CCNC(=O)[C@@H]2CC(=O)N(C)[C@@H](CC(C)C)C(=O)N(C[C@H]3CCCCO3)CC(=O)N[C@H](Cc3ccccc3)COc3ccc4ccccc4c3C(=O)N2)c1 (racemic) [Example 164]	human F508del-CFTR (Homo sapiens, UniProt P13569, DEL508-508)	167

// each listed compound needs a value for Emax
1. CC(C)C[C@H]1C(=O)N(C)C2(CC2)C(=O)N[C@H](Cc2ccccc2)COc2cnc3ccc(F)cc3c2C(=O)N[C@H](C(=O)NCCn2cc(C3CC3)cn2)CC(=O)N1C [Example 172]
2. CC(C)C[C@H]1C(=O)N(CCc2ccccc2)CC(=O)N[C@H](Cc2ccccc2)COc2cc3c(cc2C(=O)N[C@H](C(=O)NCCc2ccc4c(c2)OCO4)CC(=O)N1C)OCO3 (racemic) [Example 5]
3. CC(C)C[C@H]1C(=O)N(CCC2CCCCC2)CC(=O)N[C@H](Cc2ccccc2)COc2ccc(Cl)cc2C(=O)N[C@H](C(=O)NCCc2ccc3c(c2)OCO3)CC(=O)N1C [Example 253]
4. CC(C)C[C@H]1C(=O)N2CCOC[C@@H]2C(=O)N[C@H](Cc2ccccc2)COc2cnc3ccccc3c2C(=O)N[C@H](C(=O)NCCc2cc(C3CC3)on2)CC(=O)N1C [Example 106]

A.
213
109
136
308

// each listed compound needs a value for Emax
1. COc1cc(CCNC(=O)[C@@H]2CC(=O)N(C)[C@@H](CC(C)C)C(=O)N3CCCC[C@@H]3C(=O)N[C@H](Cc3ccccc3)COc3ccc4ncn(C)c4c3C(=O)N2)cc(OC)c1 [Example 328]
2. COc1cc2c(cc1OC)C(=O)N[C@H](C(=O)NCCc1ccc3c(c1)OCCCC3)CC(=O)N(C)[C@@H](CC(C)C)C(=O)N(C)CC(=O)N[C@H](Cc1ccccc1)CO2 [Example 161]

A.
[228, 137]

* * *

Target: human F508del-CFTR (Homo sapiens, UniProt P13569, DEL508-508)
Test: F508del-CFTR cell surface expression (corrector activity), DiscoveRx ß-galactosidase complementation chemiluminescence assay in recombinant U2OS cell line
Details: EC50, F508del-CFTR cell surface expression, U2OS cells, 16h compound incubation; geomean values
Could you please report measured EC50 for the items listed next?
Answers are plain numbers, in nM.

CC(C)C[C@H]1C(=O)N(C)C2(CC2)C(=O)N[C@H](Cc2ccccc2)COc2cnc3ccccc3c2C(=O)N[C@H](C(=O)NCCc2ccc(-n3nccn3)cc2)CC(=O)N1C 234
COc1cccc(CCNC(=O)[C@@H]2CC(=O)N(C)[C@@H](CC(C)C)C(=O)N(C)[C@H](C)C(=O)N[C@H](Cc3ccccc3)COc3cnc4ccccc4c3C(=O)N2)c1 448
COc1cc(OC)c2c(c1)OC[C@@H](Cc1ccccc1)NC(=O)[C@H]1CCCCN1C(=O)[C@H](CC(C)C)N(C)C(=O)C[C@@H](C(=O)NCCc1cc(C)no1)NC2=O 574
CC(C)C[C@H]1C(=O)N2CCOC[C@@H]2C(=O)N[C@H](Cc2ccccc2)COc2cnc3ccc(F)cc3c2C(=O)N[C@H](C(=O)NCCc2cc(C3CC3)on2)CC(=O)N1C 220

Q. Endpoint output: EC50 of "COc1cccc(CCNC(=O)[C@@H]2CC(=O)N(C)[C@@H](CC(C)C)C(=O)N3CC[C@@H](C3)C(=O)N[C@H](Cc3ccccc3)COc3cnc4ccc(F)cc4c3C(=O)N2)c1" . Value?
A. 384

* * *

Target: human F508del-CFTR (Homo sapiens, UniProt P13569, DEL508-508)
Assay: F508del-CFTR cell surface expression (corrector activity), DiscoveRx ß-galactosidase complementation chemiluminescence assay in recombinant U2OS cell line
Details: EC50, F508del-CFTR cell surface expression, U2OS cell line, 16h compound incubation; geomean values
Sorting guide: entries reporting EC50 beneath 500 nM go in the yes pile, the rest go in the no pile.

See these solved cases before continuing.
CC(C)C[C@H]1C(=O)N(C)C2(CC2)C(=O)N[C@H](Cc2ccccc2)COc2cnc3ccc(F)cc3c2C(=O)N[C@H](C(=O)NCCc2cnn(C3CC3)c2)CC(=O)N1C yes
COc1cccc(CCNC(=O)[C@@H]2CC(=O)N(C)[C@@H](CC(C)C)C(=O)N(CCC3CCCCC3)CC(=O)N[C@H](Cc3ccccc3)COc3cccc(OC)c3C(=O)N2)c1 yes
COc1cc(CCNC(=O)[C@@H]2CC(=O)N(C)[C@@H](CC(C)C)C(=O)N(CCC3CCCCC3)CC(=O)N[C@H](Cc3ccccc3)COc3cccc(OC)c3C(=O)N2)ccn1 yes
CN1C(=O)C[C@@H](C(=O)NCCc2ccc3c(c2)OCO3)NC(=O)c2c(ccc3ccccc23)OC[C@@H](Cc2ccccc2)NC(=O)CN(C[C@@H]2CCCCO2)C(=O)[C@@H]1CC1CCC1 yes

Here's the next entry for you.
Q. Is it true that EC50 reported for "COc1cccc(CCNC(=O)[C@@H]2CC(=O)N(C)[C@@H](CC(C)C)C(=O)N(C)CC(=O)N[C@H](Cc3ccccc3)COc3ccc4c(c3C(=O)N2)OCO4)c1" is less than 500 nM?
A. no

* * *

Could you please report measured pEC50 for the items listed next?
Target: human F508del-CFTR (Homo sapiens, UniProt P13569, DEL508-508)
Experiment: F508del-CFTR cell surface expression (corrector activity), DiscoveRx ß-galactosidase complementation chemiluminescence assay in recombinant U2OS cell line
Details: EC50, F508del-CFTR cell surface expression, U2OS cells, 16h compound incubation; geomean values
Give bare numbers, as −log10 of the molar value.

Solved entries (count: 2):
compound	reported-result
COc1cc(CCNC(=O)[C@@H]2CC(=O)N(C)[C@@H](CC(C)C)C(=O)N(C)[C@H](C)C(=O)N[C@H](Cc3ccccc3)COc3ccnc(OC)c3C(=O)N2)on1 [Example 771]	6.22
COc1nc(C)cc2c1C(=O)N[C@H](C(=O)NCCc1cc(C(F)(F)F)no1)CC(=O)N(C)[C@@H](CC(C)C)C(=O)N1CCCC[C@@H]1C(=O)N[C@H](Cc1ccccc1)CO2 [Example 568]	6.41

# evaluate next
Q. Endpoint output: pEC50 of COc1cc(CCNC(=O)[C@@H]2CC(=O)N(C)[C@@H](CC(C)C)C(=O)N(C)[C@H](C)C(=O)N[C@H](Cc3ccccc3)COc3cc(C)nc(OC)c3C(=O)N2)on1 [Example 772] . Value?
A. 6.29

* * *

Could you please report measured Emax for the items listed next?
Target: human F508del-CFTR (Homo sapiens, UniProt P13569, DEL508-508)
Experiment: F508del-CFTR cell surface expression (corrector activity), DiscoveRx ß-galactosidase complementation chemiluminescence assay in recombinant U2OS cell line;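 also: U2OS cells co-expressing ProLink-tagged F508del-CFTR and a membrane-anchored enzyme acceptor, where more surface CFTR restores β-galactosidase activity measured by chemiluminescence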
Settings: U2OS, in relation to the Emax of the corrector lumacaftor (=100%); U2OS cells, 16h compound incubation; arithmetic mean
Give bare numbers, in %.

compound	Emax (%)
COc1cc(CCNC(=O)[C@@H]2CC(=O)N(C)[C@@H](CC(C)C)C(=O)N(C)C3(CC(F)(F)C3)C(=O)N[C@H](Cc3ccccc3)COc3cnc4ccc(F)cc4c3C(=O)N2)on1 [Example 839]	336

// each listed compound needs a value for Emax
1. COc1ccc(CCNC(=O)[C@@H]2CC(=O)N(C)[C@@H](CC(C)C)C(=O)N(C)[C@H](Cc3nc(-c4ccc(F)cn4)no3)C(=O)N[C@H](Cc3ccccc3)COc3cnc4ccc(F)cc4c3C(=O)N2)nc1 [Example 847]
2. COCCc1ccc(-c2noc(C[C@@H]3C(=O)N[C@H](Cc4ccccc4)COc4ccnc(OC)c4C(=O)N[C@H](C(=O)NCCc4cc(OC)no4)CC(=O)N(C)[C@@H](CC(C)C)C(=O)N3C)n2)cc1 [Example 868]
3. CC(C)C[C@H]1C(=O)N(C)[C@H](Cc2cc(C(C)(C)C)no2)C(=O)N[C@H](Cc2ccccc2)COc2cnc3ccc(F)cc3c2C(=O)N[C@H](C(=O)NCCc2noc(C3CC3)n2)CC(=O)N1C [Example 886]

A.
1: 340; 2: 397; 3: 359
